I'd appreciate it if you could supply inhibition at 2 µM values for the items below.
- STUDY_SYSTEM: human NTPDase3 (Homo sapiens, UniProt O75355)
- Construct: expressed in transfected cells; host or cells: COS-7 cells (membrane preparation)
- Sequence (O75355 whole entry): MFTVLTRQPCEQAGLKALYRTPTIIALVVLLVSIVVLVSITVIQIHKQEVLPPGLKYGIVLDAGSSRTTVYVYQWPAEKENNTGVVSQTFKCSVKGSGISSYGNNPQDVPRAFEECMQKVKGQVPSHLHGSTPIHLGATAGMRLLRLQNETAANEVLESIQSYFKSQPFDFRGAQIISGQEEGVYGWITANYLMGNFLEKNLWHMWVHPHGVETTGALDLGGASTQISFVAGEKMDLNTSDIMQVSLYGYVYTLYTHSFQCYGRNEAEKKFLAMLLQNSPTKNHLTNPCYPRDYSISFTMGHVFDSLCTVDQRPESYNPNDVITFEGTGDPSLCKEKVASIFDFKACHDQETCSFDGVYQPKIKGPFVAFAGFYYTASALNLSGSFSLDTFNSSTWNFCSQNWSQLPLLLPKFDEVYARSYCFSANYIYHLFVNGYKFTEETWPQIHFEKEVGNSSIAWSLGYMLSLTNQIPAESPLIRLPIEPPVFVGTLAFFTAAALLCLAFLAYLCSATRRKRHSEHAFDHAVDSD
- ASSAY_METHOD_TEXT: Malachite green assay, human NTPDase3
- Format: biochemical
- CONDITION_PARAMETERS: 2 μM compound; 100 µM ATP; COS-7 membrane preparation; read-out: % inhibition at 2 μM concentration, NTPDase3
Give bare numbers, in %.

Example entries and their recorded answers appear below.
{"SMILES_CODE": "Nc1c(S(=O)(=O)O)cc(Nc2ccc(Oc3ccc(Br)cc3)cc2)c2c1C(=O)c1ccccc1C2=O", "STUDY_SYSTEM": "human NTPDase3 (Homo sapiens, UniProt O75355)", "OBSERVED_VALUE": 21}
{"SMILES_CODE": "Nc1c(S(=O)(=O)O)cc(Nc2ccc(Sc3ccccc3)c(Cl)c2)c2c1C(=O)c1ccccc1C2=O", "STUDY_SYSTEM": "human NTPDase3 (Homo sapiens, UniProt O75355)", "OBSERVED_VALUE": 20}
{"SMILES_CODE": "Nc1ccc(Nc2cc(S(=O)(=O)O)c(N)c3c2C(=O)c2ccccc2C3=O)cc1", "STUDY_SYSTEM": "human NTPDase3 (Homo sapiens, UniProt O75355)", "OBSERVED_VALUE": -25}

Now take the following compound into account.
Field request: inhibition at 2 µM | item: Nc1c(S(=O)(=O)O)cc(Nc2ccc(Sc3ccccc3)cc2)c2c1C(=O)c1ccccc1C2=O 7
